# System: HeLa S3
# procedure_text: Cytotoxicity against human HeLaS3 cells after 96 hrs by MTT assay
# Type: functional, cell-based
# conditions_used: HeLa S3, 96 h
Recorded pIC50 values for a group of molecules are listed next.
Give only the number. pIC50 is defined as minus log10 of concentration in molar units.

>  <molecule>
COCC(C(=O)O[C@@H]1C/C=C/C=C/C(=O)O[C@H]([C@@H](C)[C@@H](O)[C@@H](C)CC[C@@H](OC(=O)[C@H](C)N(C)C)[C@H](C)[C@H](OC(C)=O)[C@H](C)CC=NOCC(=O)NCCCC[C@H](NC(=O)c2ccc(C3(C(F)(F)F)N=N3)cc2)C(=O)NCCCOCCOCCOCCCNC(=O)CCCC[C@@H]2SC[C@@H]3NC(=O)N[C@@H]32)C/C=C/[C@H](OC)C[C@H](C)C/C=C(\C)[C@@H](OC)CC[C@@H](C)[C@@H](O)[C@@H]1C)N(C)C (stereo partly drawn)

>  <pIC50>
8.92

$$$$
>  <molecule>
COCC(C(=O)O[C@@H]1C/C=C/C=C/C(=O)O[C@H]([C@@H](C)[C@@H](O)[C@@H](C)CC[C@@H](OC(=O)[C@H](C)N(C)C)[C@H](C)[C@H](OC(C)=O)[C@H](C)/C=C/N(C)C=O)C/C=C/[C@H](OC)C[C@H](C)C/C=C(\C)[C@@H](OC)CC[C@@H](C)[C@@H](O)[C@@H]1C)N(C)C (stereo partly drawn)

>  <pIC50>
11.00

$$$$

Kindly consider the entry below.
Which pIC50 value is on record for C#CCNC(=O)[C@H](CCCCNC(=O)CON=CC[C@@H](C)[C@@H](OC(C)=O)[C@@H](C)[C@@H](CC[C@H](C)[C@H](O)[C@H](C)[C@@H]1C/C=C/[C@H](OC)C[C@H](C)C/C=C(\C)[C@@H](OC)CC[C@@H](C)[C@@H](O)[C@H](C)[C@H](OC(=O)C(COC)N(C)C)C/C=C/C=C/C(=O)O1)OC(=O)[C@H](C)N(C)C)NC(=O)CCC(=O)NCCCOCCOCCOCCCNC(=O)c1ccc(C2(C(F)(F)F)N=N2)cc1 (stereo partly drawn) ?
8.92

* * *

# Test system: HeLa S3
# procedure_text: Cytotoxicity against human HeLaS3 cells after 96 hrs by MTT assay
# Assay type: functional, cell-based
# conditions_used: HeLa S3, 96 h
Recorded IC50 values for a group of molecules are listed next.
Param answer (str): number followed by unit.

>  <molecule>
COCC(C(=O)O[C@@H]1C/C=C/C=C/C(=O)O[C@H]([C@@H](C)[C@@H](O)[C@@H](C)CC[C@@H](OC(=O)[C@H](C)N(C)C)[C@H](C)[C@H](OC(C)=O)[C@H](C)CC=NOCC(=O)NCCCC[C@H](NC(=O)c2ccc(C3(C(F)(F)F)N=N3)cc2)C(=O)NCCCCCCNC(=O)c2ccc(-c3c4ccc(N(C)C)cc4[o+]c4cc(N(C)C)ccc34)c(C(=O)[O-])c2)C/C=C/[C@H](OC)C[C@H](C)C/C=C(\C)[C@@H](OC)CC[C@@H](C)[C@@H](O)[C@@H]1C)N(C)C (some centres undefined)

>  <IC50>
13 nM

$$$$
>  <molecule>
C#CCNC(=O)[C@H](CCCCNC(=O)CON=CC[C@@H](C)[C@@H](OC(C)=O)[C@@H](C)[C@@H](CC[C@H](C)[C@H](O)[C@H](C)[C@@H]1C/C=C/[C@H](OC)C[C@H](C)C/C=C(\C)[C@@H](OC)CC[C@@H](C)[C@@H](O)[C@H](C)[C@H](OC(=O)C(COC)N(C)C)C/C=C/C=C/C(=O)O1)OC(=O)[C@H](C)N(C)C)NC(=O)c1ccc(C2(C(F)(F)F)N=N2)cc1 (some centres undefined)

>  <IC50>
0.76 nM

$$$$
>  <molecule>
COCC(C(=O)O[C@@H]1C/C=C/C=C/C(=O)O[C@H]([C@@H](C)[C@@H](O)[C@@H](C)CC[C@@H](OC(=O)[C@H](C)N(C)C)[C@H](C)[C@H](OC(C)=O)[C@H](C)CC=NOCC(=O)NCCCC[C@H](NC(=O)CCC(=O)NCCCOCCOCCOCCCNC(=O)c2ccc(C3(C(F)(F)F)N=N3)cc2)C(=O)NCCCCCCNC(=O)c2ccc(-c3c4ccc(N(C)C)cc4[o+]c4cc(N(C)C)ccc34)c(C(=O)[O-])c2)C/C=C/[C@H](OC)C[C@H](C)C/C=C(\C)[C@@H](OC)CC[C@@H](C)[C@@H](O)[C@@H]1C)N(C)C (some centres undefined)

>  <IC50>
28 nM

$$$$

Kindly consider the entry below.
Which IC50 value is on record for COCC(C(=O)O[C@@H]1C/C=C/C=C/C(=O)O[C@H]([C@@H](C)[C@@H](O)[C@@H](C)CC[C@@H](OC(=O)[C@H](C)N(C)C)[C@H](C)[C@H](OC(C)=O)[C@H](C)CC=NOCC(=O)NCCCC[C@H](NC(=O)CCC(=O)NCCCOCCOCCOCCCNC(=O)c2ccc(C3(C(F)(F)F)N=N3)cc2)C(=O)NCCCOCCOCCOCCCNC(=O)CCCC[C@@H]2SC[C@@H]3NC(=O)N[C@@H]32)C/C=C/[C@H](OC)C[C@H](C)C/C=C(\C)[C@@H](OC)CC[C@@H](C)[C@@H](O)[C@@H]1C)N(C)C (some centres undefined) ?
0.54 nM
